Listing of recorded concentration at 5 min by entry.
- assayName: Drug concentration in rat plasma at 3 mg/kg, po measured at 5 mins by LC-MS/MS analysis
- Type: ADME, organism-based

{"columns": ["molecule", "concentration at 5 min (ng/mL)"],
 "data": [
  ["CC(=O)N1CCc2c(c(N3CCCc4ccc(C(F)F)cc43)nn2C2CCN(C(=O)CN3Cc4cc5c(cc4C3)C(=O)N(C3CCC(=O)NC3=O)C5=O)CC2)C1 (configuration not stated)", 1],
  ["CC(=O)N1CCc2c(c(N3CCCc4cc(-c5cnn(C)c5)c(C(F)F)cc43)nn2C2CCN(C(=O)CN3Cc4cc5c(cc4C3)C(=O)N(C3CCC(=O)NC3=O)C5=O)CC2)C1 (configuration not stated)", 3.7]
]}
